Biological target: il2ra, P01589
Sequence (P01589 whole entry): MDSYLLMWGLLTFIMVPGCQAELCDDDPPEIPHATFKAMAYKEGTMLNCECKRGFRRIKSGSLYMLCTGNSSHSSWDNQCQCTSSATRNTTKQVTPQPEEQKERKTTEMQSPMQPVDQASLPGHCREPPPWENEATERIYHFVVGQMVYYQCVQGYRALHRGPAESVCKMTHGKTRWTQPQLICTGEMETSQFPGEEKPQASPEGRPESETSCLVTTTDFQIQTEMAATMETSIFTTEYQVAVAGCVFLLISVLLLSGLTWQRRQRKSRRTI
Assay: yeast display titration
Not all results are given here. How many sequences the whole screen found active is unknown.
test-readout: apparent Kd

Ask | Query (binder): il2ra_site1_1z92_normal_mot_9b3351f2f66fbcc824ad33b4da01f8ef_0001_af2_000000012_0001_16_32_H_._HHH_b1_08171_0001_0000100006_0000001_0 (protein) SSSSSEEVLKKDLRFAVEARNPSSFRRLAELARRDLKEAGDEEALREFEEFVEELEQELGSSSSS ; field requested: apparent Kd
Reply | > 1.5 µM (inactive)

Ask | What apparent Kd value was documented for this binder, il2ra_site1_3nfp_sap_20_mot_HHH_b2_00213_000000088_0001_1_18_H_._HEEHE_0331_af2_0001_0000400039_0000001_0_0001_af2pred_dldesign_0_af2pred (protein) SSSSSLRKELERLLKKAYETGKKNDKEKLKKLLEEALKLAKENKAKLSVKFLERALKQLKSSSSS ?
Reply | > 1.47 µM (inactive)

Ask | State the recorded apparent Kd for this entry: il2ra_site1_1z92_normal_mot_HHH_b1_00893_000000159_0001_19_35_H_._43152d1d296b358565056a4a32fd9b81_0001_1_af2_0001_0000300029_0000001_0_af2pred_0001_af2pred_1_s … (protein) DDEELEEKLKEAAENRDVEKLEELLRELLELLGDPAVKFLLEFFERLLKRDEEDAVKNVLRFVSF
Reply | > 2.78 µM (inactive)

Origin of values: paper PMC10163288
